Source listed as paper PMC10975061.

Experiment: Transepithelial transport across Transwell monolayers (AP to BL), with inhibitors and enhancers
Assay type: in vitro ADME, human
Conditions: apical to basolateral, 6 h; sodium azide (20 mM); read-out: Papp values
Peptide text beside a SMILES is read from it.
READOUT NAME: Papp A→B (×10⁻⁶ cm/s)
Answers are plain numbers, in ×10⁻⁶ cm/s.

Prompt: Name the recorded Papp A→B of the item CC(C)[C@H](NC(=O)[C@H](CC(=O)O)NC(=O)[C@H](CCCCN)NC(=O)[C@@H](N)CCCN=C(N)N)C(=O)N[C@@H](Cc1ccc(O)cc1)C(=O)O [TP5, thymopentin] (H-RKDVY-OH) in your answer.
Response: 0.059

====

Test: Transepithelial transport across Transwell monolayers (AP to BL), with inhibitors and enhancers
Format: in vitro ADME, human
Settings: apical to basolateral, 6 h; EDTA (10 mM); read-out: Papp values
Peptide text beside a SMILES is read from it.
READOUT NAME: Papp A→B (×10⁻⁶ cm/s)
Numbers only, in ×10⁻⁶ cm/s.

Prompt: Name the recorded Papp A→B of the item CC(C)[C@H](NC(=O)[C@H](CC(=O)O)NC(=O)[C@H](CCCCN)NC(=O)[C@@H](N)CCCN=C(N)N)C(=O)N[C@@H](Cc1ccc(O)cc1)C(=O)O [TP5, thymopentin] (H-RKDVY-OH) in your answer.
Response: 0.142

====

Experiment: Transepithelial transport across Transwell monolayers (AP to BL), with inhibitors and enhancers
Type: in vitro ADME, human
Settings: apical to basolateral, 6 h; no treatment; read-out: Papp values
Peptide text beside a SMILES is read from it.
READOUT NAME: Papp A→B (nm/s)
Answers are plain numbers, in nm/s.

Prompt: Name the recorded Papp A→B of the item CC(C)[C@H](NC(=O)[C@H](CC(=O)O)NC(=O)[C@H](CCCCN)NC(=O)[C@@H](N)CCCN=C(N)N)C(=O)N[C@@H](Cc1ccc(O)cc1)C(=O)O [TP5, thymopentin] (H-RKDVY-OH) in your answer.
Response: 0.539

====

Assay: Transepithelial transport across Transwell monolayers (AP to BL), with inhibitors and enhancers
Type: in vitro ADME, human
Settings: apical to basolateral, 6 h; sodium taurocholate (20 mM); read-out: Papp values
Peptide text beside a SMILES is read from it.
READOUT NAME: Papp A→B
Write the quantity with the unit trailing the number.

Prompt: Name the recorded Papp A→B of the item CC(C)[C@H](NC(=O)[C@H](CC(=O)O)NC(=O)[C@H](CCCCN)NC(=O)[C@@H](N)CCCN=C(N)N)C(=O)N[C@@H](Cc1ccc(O)cc1)C(=O)O [TP5, thymopentin] (H-RKDVY-OH) in your answer.
Response: 1.34 nm/s

====

Assay: Transepithelial transport across Transwell monolayers (AP to BL), with inhibitors and enhancers
Assay type: in vitro ADME, human
Conditions: apical to basolateral, 6 h; silymarin (20 µM); read-out: Papp values
Peptide text beside a SMILES is read from it.
READOUT NAME: Papp A→B (×10⁻⁶ cm/s)
Answers are plain numbers, in ×10⁻⁶ cm/s.

Prompt: Name the recorded Papp A→B of the item CC(C)[C@H](NC(=O)[C@H](CC(=O)O)NC(=O)[C@H](CCCCN)NC(=O)[C@@H](N)CCCN=C(N)N)C(=O)N[C@@H](Cc1ccc(O)cc1)C(=O)O [TP5, thymopentin] (H-RKDVY-OH) in your answer.
Response: 0.043
